- Test system: BE(2)-C
- Test Method Notes: Cytotoxicity against human BE2C cells assessed as growth inhibition measured after 72 hrs by SRB assay
- Type: functional
Readout: log10 of GI50 (log10 of the value in µM)
Please note: log10 values; quantity GI50; unit µM.

Answered cases to consult:
N#C/C(=C\c1ccc(OCC(O)CNC23CC4CC(CC(C4)C2)C3)cc1)c1ccc(Cl)c(Cl)c1 (racemic); 0.34
CC1CCCCN1CC(O)COc1ccc(/C=C(\C#N)c2ccc(Cl)c(Cl)c2)cc1 (racemic); 0.38
N#C/C(=C\c1ccc(OCC(O)CNC2CCCCC2)cc1)c1ccc(Cl)c(Cl)c1 (racemic); 0.45
COc1ccc(NCC(O)COc2ccc(/C=C(\C#N)c3ccc(Cl)c(Cl)c3)cc2)cc1 (racemic); 1.61

Inquiry: Supply measured log10 of GI50 of CC1CCN(CC(O)COc2ccc(/C=C(\C#N)c3ccc(Cl)c(Cl)c3)cc2)CC1 (racemic) in your reply.
Reply text: 0.41
